# assay text: PK study in rats (plasma)
# Type: in vivo
# condition details: rat; rats, Group 2: compound 100 83 mg/kg IV; analyte compound 100 in plasma; read-out: AUC0-1
readout: AUC(0-t) (µM·h)
Provide only the numeric value, understood in µM·h.

Which AUC(0-t) is listed for O=C(OC1O[C@H](CO)[C@@H](O)[C@H]1O)c1cccnc1 (stereo partly shown) ?
148

* * *

# System: human hepatocytes
# assay text: Human hepatocyte clearance
# Type: in vitro ADME
readout: Remarks (clearance class)

compound: C[C@]12CC[C@H]3[C@@H](CCC4=CC(=O)CC[C@@]43C)[C@@H]1CC[C@@H]2O [Testosterone, reference compound]
assayed target: human hepatocytes
readout: Remarks (clearance class)
observed value: High*
--
compound: CC(=O)CC(c1ccccc1)c1c(O)c2ccccc2oc1=O (stereo not shown) [Warfarin, reference compound]
assayed target: human hepatocytes
readout: Remarks (clearance class)
observed value: Low*
--
compound: COC(=O)[C@@H](C)N[P@](=O)(OC[C@H]1OC(OC(=O)c2cccnc2)[C@H](O)[C@@H]1O)Oc1ccccc1 (single isomer, unassigned)
assayed target: human hepatocytes
readout: Remarks (clearance class)
observed value: High
